Data origin, for the record: ChEMBL document CHEMBL3433997

This listing pairs molecules with measured inhibition.
- testTarget: Solute carrier family 2, facilitated glucose transporter member 1 (Homo sapiens) (UniProt P11166)
- Sequence (P11166 whole entry): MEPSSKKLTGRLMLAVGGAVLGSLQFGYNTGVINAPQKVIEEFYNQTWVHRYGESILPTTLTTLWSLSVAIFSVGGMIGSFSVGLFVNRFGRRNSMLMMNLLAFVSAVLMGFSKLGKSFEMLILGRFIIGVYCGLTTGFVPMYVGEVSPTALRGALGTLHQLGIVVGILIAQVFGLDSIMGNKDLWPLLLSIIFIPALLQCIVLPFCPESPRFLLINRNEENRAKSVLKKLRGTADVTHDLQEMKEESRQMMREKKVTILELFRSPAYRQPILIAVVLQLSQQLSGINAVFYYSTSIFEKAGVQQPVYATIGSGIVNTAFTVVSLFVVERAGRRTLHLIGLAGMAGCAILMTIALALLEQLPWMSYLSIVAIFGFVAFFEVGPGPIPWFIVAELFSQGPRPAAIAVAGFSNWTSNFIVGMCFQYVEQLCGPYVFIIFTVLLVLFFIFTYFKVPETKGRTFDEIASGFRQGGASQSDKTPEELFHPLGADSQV
- procedureSummary: ST_JUDE_LEISH: Cytotoxicity at 2uM final concentration against transgenic Leishmania Mexicana promastigotes LmGLUT1 that are glucose transport deficient and complemented with the human glucose transporter GLUT1. Activity is measured by DNA content using SYBR green in vitro
- Assay type: functional
Just the number please, in %, no unit attached.

// worked examples, inhibition included
| molecule | inhibition [%] |
| --- | --- |
| CN(CC(=O)Nc1ccc(F)cc1)C(=O)c1ccc(-c2ccc(F)cc2)o1 | 5.1 |
| C=CCn1c(SCC(=O)Nc2cc(C)ccc2OC)nc2sc(C)cc2c1=O | 4.32 |
| CC(CN1CCN(C)CC1)C(=O)Nc1ccc(-c2csc(-c3nc4ccccc4[nH]3)c2)cc1 (centres undefined) | 4.03 |
| O=C(c1cccs1)N1N=C(c2cccs2)CC1c1cccc([N+](=O)[O-])c1 (centres undefined) | 8.21 |
| O=c1c2ccc(Sc3ccccn3)cc2n(-c2ccccc2)c2cc(Sc3ccccn3)ccc12 | 1.05 |

Task: Entry O=C(NCCCCN1CCC(c2c[nH]c3ccccc23)CC1)c1sc(-c2ccc(C(F)(F)F)cc2)nc1CO needs its inhibition filled in; supply it.
Result: 7.38

Task: Give the measured inhibition for CC(=O)Nc1ccc(C(=O)Nc2cccc(-c3ccc(-c4nc5cc(C(F)(F)F)ccc5[nH]4)cc3)c2)cn1
Result: 2.59

Task: Check the records and state inhibition for O=C(/C=C/c1ccc(Cl)cc1)NCCCCCN1CCCN(C(=O)Nc2cccc(Cl)c2)CC1
Result: -2.75

Task: Using known records, supply inhibition for O=C(Nc1ccc(C(F)(F)F)cc1)c1cccc(S(=O)(=O)NC2CCN(CC3CCCCC3)C2)c1 (centres undefined)
Result: 2.01
